Reported values of Effect for individual entries
- target_system: Estrogen receptor (Mus musculus) (UniProt O08537+P19785)
- Sequence (O08537 whole entry, looked up): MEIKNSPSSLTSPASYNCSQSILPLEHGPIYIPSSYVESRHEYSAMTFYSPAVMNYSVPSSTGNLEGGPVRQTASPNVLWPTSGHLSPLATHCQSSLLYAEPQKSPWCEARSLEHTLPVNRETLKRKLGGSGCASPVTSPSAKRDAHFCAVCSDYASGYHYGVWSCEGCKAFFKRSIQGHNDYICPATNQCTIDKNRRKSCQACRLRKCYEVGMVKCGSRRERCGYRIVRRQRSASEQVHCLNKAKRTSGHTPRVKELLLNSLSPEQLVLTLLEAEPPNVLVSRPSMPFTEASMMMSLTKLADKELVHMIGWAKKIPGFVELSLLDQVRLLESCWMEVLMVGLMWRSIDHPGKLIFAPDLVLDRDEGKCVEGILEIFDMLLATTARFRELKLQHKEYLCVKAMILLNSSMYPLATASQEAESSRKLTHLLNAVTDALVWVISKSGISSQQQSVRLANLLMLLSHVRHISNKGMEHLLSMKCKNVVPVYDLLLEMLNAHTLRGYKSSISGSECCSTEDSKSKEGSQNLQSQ
- Sequence (P19785 whole entry, looked up): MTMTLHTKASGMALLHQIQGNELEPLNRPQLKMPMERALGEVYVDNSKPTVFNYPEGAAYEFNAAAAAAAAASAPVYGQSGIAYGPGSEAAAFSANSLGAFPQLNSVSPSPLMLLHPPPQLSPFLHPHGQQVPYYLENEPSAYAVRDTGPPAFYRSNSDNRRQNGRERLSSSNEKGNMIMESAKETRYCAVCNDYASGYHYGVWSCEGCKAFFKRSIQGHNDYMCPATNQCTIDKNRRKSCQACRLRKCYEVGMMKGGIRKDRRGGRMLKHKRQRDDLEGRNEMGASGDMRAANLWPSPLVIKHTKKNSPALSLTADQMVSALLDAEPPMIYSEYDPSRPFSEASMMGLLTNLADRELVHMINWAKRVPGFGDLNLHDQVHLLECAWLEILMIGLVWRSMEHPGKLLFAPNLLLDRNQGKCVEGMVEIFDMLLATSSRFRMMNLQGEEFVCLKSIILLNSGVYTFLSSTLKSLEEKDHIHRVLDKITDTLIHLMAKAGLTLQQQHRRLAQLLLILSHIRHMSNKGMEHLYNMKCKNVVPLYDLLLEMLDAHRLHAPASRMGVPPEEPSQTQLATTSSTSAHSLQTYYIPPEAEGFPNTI
- assay_method_text: Anti-uterotrophic effect in mice as uterus dry weight(mg) compared to body weight(g) at 25 ug/day dose
- Type: functional, tissue-based
Lab note: jot down the number only; don't add units.

Return reported Effect; argument: CC(=O)Oc1cc(OC(C)=O)cc(C(C)(C)C(C)(C)c2cc(OC(C)=O)cc(OC(C)=O)c2)c1
39

Return reported Effect; argument: CC(C)(c1ccc(O)cc1)C(C)(C)c1ccc(O)cc1
28

Return reported Effect; argument: CCC(C)(c1ccc(O)cc1)C(C)(CC)c1ccc(O)cc1 (centres undefined)
34

Source listed as ChEMBL document CHEMBL1121485.
